Target: MLKL (Homo sapiens)
Sequence (Q8NB16 whole entry): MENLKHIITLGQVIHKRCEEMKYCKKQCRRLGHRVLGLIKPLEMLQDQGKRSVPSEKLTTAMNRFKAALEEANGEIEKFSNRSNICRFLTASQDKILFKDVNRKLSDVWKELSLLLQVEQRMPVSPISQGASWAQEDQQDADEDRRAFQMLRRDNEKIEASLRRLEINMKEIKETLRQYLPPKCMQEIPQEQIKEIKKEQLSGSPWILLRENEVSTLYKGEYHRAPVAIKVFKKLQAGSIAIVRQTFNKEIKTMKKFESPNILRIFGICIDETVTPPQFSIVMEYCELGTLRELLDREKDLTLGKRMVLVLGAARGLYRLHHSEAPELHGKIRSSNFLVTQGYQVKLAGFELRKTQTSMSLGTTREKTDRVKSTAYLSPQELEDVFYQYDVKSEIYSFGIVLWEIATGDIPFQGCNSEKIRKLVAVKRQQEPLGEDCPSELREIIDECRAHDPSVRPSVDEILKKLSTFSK
Assay: MLKL degradation assay in HepG2 cell line (western blot)
Assay type: cell-based
Set-up: endogenous in cells; host or cells: HepG2 or HaCaT
Conditions: compound 10 μM; cell line not given
Method: MLKL degradation ability was evaluated in the following method. […] For protein preparation after incubation, cells were washed with 1×TBST, and 60 μL of RIPA lysis buffer containing Halt™ Protease and Phosphatase Inhibitor Cocktail was dispensed into each well. […] For protein quantification, after dispensing sample and BCA (0-4 mg/ml) in a 96 well plate, 100 μL of BCA was dispensed and reacted in a 37° C. incubator for 30 minutes. […]
assay-metric: Degradation assay (Degradation %) 10 μM

a: Nc1ncc(-c2cnn(C3CCN(CCC4CCN(C(=O)CCc5cccc6c5CN(C5CCC(=O)NC5=O)C6=O)CC4)CC3)c2)nc1C(=O)O[C@@H](C(=O)Nc1ccc(F)cc1)c1ccccc1 (stereo partly shown)
b: Nc1ncc(-c2cnn(C3CCN(CCC4CCN(C(=O)C5CCN(c6cccc7c6C(=O)N(C6CCC(=O)NC6=O)C7=O)CC5)CC4)CC3)c2)nc1C(=O)O[C@@H](C(=O)Nc1ccc(F)cc1)c1ccccc1 (stereo partly shown)
stdin: a or b : whose Degradation assay (Degradation %) 10 μM is greater? # answer = label of selected item
stdout: a
(a: 85.11%, b: 51.12%)

I: Nc1ncc(-c2cnn(C3CCN(CC4CN(C(=O)COc5ccc6c(c5)C(=O)N(C5CCC(=O)NC5=O)C6=O)CCO4)CC3)c2)nc1C(=O)O[C@@H](C(=O)Nc1ccc(F)cc1)c1ccccc1 (stereo partly shown)
II: Nc1ncc(-c2cnn(C3CCN(CC4CCN(C(=O)COc5cccc6c5C(=O)N(C5CCC(=O)NC5=O)C6=O)CC4)CC3)c2)nc1C(=O)O[C@@H](C(=O)Nc1ccc(F)cc1)c1ccccc1 (stereo partly shown)
stdin: Between I and II , which one has the lower reported Degradation assay (Degradation %) 10 μM value? # answer = label of selected item
stdout: II

1: Nc1ncc(-c2cnn(C3CCN(C(=O)CC4CCN(C(=O)C5CCN(c6cccc7nnn(C8CCC(=O)NC8=O)c(=O)c67)CC5)CC4)CC3)c2)nc1C(=O)O[C@@H](C(=O)Nc1ccc(F)cc1)c1ccccc1 (stereo partly shown)
2: Nc1ncc(-c2cnn(C3CCN(CC4CCN(CC(=O)NCCCNc5cccc6c5C(=O)N(C5CCC(=O)NC5=O)C6=O)CC4)CC3)c2)nc1C(=O)OC(C(=O)Nc1ccc(F)cc1)c1ccccc1 (stereo not shown)
stdin: Between 1 and 2 , which one has the lower reported Degradation assay (Degradation %) 10 μM value? # answer = label of selected item
stdout: 2

I: Nc1ncc(-c2cnn(C3CCN(CCCN4CCN(C(=O)CNc5ccc6c(c5)C(=O)N(C5CCC(=O)NC5=O)C6=O)CC4)CC3)c2)nc1C(=O)O[C@@H](C(=O)Nc1ccc(F)cc1)c1ccccc1 (stereo partly shown)
II: Nc1ncc(-c2cnn([C@H]3CCN(CCOCCOCCNC(=O)COc4cccc5c4C(=O)N(C4CCC(=O)NC4=O)C5=O)C3)c2)nc1C(=O)OC(C(=O)Nc1ccc(F)cc1)c1ccccc1 (stereo partly shown)
stdin: Between I and II , which one has the lower reported Degradation assay (Degradation %) 10 μM value? # answer = label of selected item
stdout: II

---

Tested on: FADD−/− Jurkat cells
Test: Necroptosis inhibition assay, TNF-α-induced necroptosis (CellTiter-Glo 2.0)
Assay type: cell-based, human
Details: compound 10 μM; TNF-α 15 ng/mL, FADD−/− Jurkat cells
Reported Necroptosis inhibition assay (Rescue %) 10 μM by item:
Your answer should be a plain number; it is taken to be in %.

Past entries and their recorded results:
1) Nc1ncc(-c2cnn(C3CCN(CC4CCN(CC5CCN(C(=O)c6ccc7c(N8CCC(=O)NC8=O)coc7c6)CC5)CC4)CC3)c2)nc1C(=O)O[C@@H](C(=O)Nc1ccc(F)cc1)c1ccccc1; −51.39
2) Nc1ncc(-c2cnn(C3CCN(CCC4CCN(CC5CCN(C(=O)Cc6cccc(NC7=CC(=O)N(C8CCC(=O)NC8=O)C7=O)c6)CC5)CC4)CC3)c2)nc1C(=O)O[C@@H](C(=O)Nc1ccc(F)cc1)c1ccccc1 (stereo partly drawn); −91.81

stdin: Suppose we examine the compound Nc1ncc(-c2cnn(C3CCN(C(=O)CCC4CCN(C(=O)CC5CCN(c6ccc7c(c6)C(=O)N(C6CCC(=O)NC6=O)C7=O)CC5)CC4)CC3)c2)nc1C(=O)O[C@@H](C(=O)Nc1ccc(F)cc1)c1ccccc1 (stereo partly drawn) ; what Necroptosis inhibition assay (Rescue %) 10 μM value has been reported?
stdout: 14.13
